assay: Pharmacokinetics of AE-PM components and their phase II metabolites in rat plasma after single oral administration (UHPLC-MS/MS, with and without sulfatase hydrolysis); conditions: rat, plasma, po, 50 g/kg, t1/2z, CCl4 group rats; oral AE-PM 50 g/kg; plasma; n = 6
Would you mind telling me the reported half-life of each entry?
One number for each entry, in h.

Answered examples (4):
COc1cc(O)c2c(c1)C(=O)c1cc(C)cc(O[C@@H]3O[C@H](CO)[C@@H](O)[C@H](O)[C@H]3O)c1C2=O [P-glu, physcion-8-O-β-D-glucoside] ... 4.08
COc1cc(O)c2c(c1)C(=O)c1cc(C)cc(O)c1C2=O [Physcion, physcion] ... 8.78
Cc1cc(O[C@@H]2O[C@H](CO)[C@@H](O)[C@H](O)[C@H]2O)c2c(c1)C(=O)c1cc(O)cc(O)c1C2=O [E-glu, emodin-8-O-β-D-glucoside] ... 4
Oc1cc(O)c2c(c1)O[C@H](c1ccc(O)c(O)c1)[C@@H](O)C2 [Catechin, catechin] ... 3.76

## Task Give the reported half-life for this compound. OC[C@H]1O[C@@H](Oc2c(O)cc(O)cc2/C=C/c2ccc(O)cc2)[C@H](O)[C@@H](O)[C@@H]1O [TSG]
## Result 2.81

The measured values listed here are drawn from paper PMC8245786.
